- measurement_target: T1, recombinant human OX40-Fc (human, UniProt P43489 29-214)
- T1 construct: also called rh-OX40-Fc; human OX40 hFC (R & D systems)
- T1 sequence: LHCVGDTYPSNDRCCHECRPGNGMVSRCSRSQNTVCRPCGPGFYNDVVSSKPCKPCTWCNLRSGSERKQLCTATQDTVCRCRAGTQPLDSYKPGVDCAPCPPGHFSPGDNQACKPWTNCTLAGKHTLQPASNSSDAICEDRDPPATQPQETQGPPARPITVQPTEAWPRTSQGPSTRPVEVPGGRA
- protocol: ELISA, OX40-Fc coated, VHH at 0.064 nM
Kindly apply the following: label 1 if OD450 is less than 0.2, label 0 in every other case.

Worked set:
INSERT INTO results (binder, class_label) VALUES
  ('pgXX88-SZ-15 (VHH, not shown: small tags and cut ends) VHH: QVQLVESGGGLVQPGGSLRLSCSPSEGAFKMLTTGWFRQVLGKEREFVSAISWGGGATYYADSVKGRFTVSRDNAKNTVYLQMNSLKPEDTAVYYCAVDTGNGVATNIRSQSRYDYWGQGTQVTVSS', 'label 1'),
  ('pgXX88-84 (VHH, not shown: small tags and cut ends) VHH: EVQLVESGGRLVQAGDSLKLSCTASGRTFSDYVMGWFRQVPGEGRLMVAVITPAGDTTEYADAVKGRFSISKDSAKRTVNLQMNNLKVDDTAVYYCAAGPSWIGMQFGTAEYWGQGTQVTVSS', 'label 1'),
  ('pgXX88-16 (VHH, not shown: small tags and cut ends) VHH: QVQLVESGGGLVQAGESLNLSCSASGSIRNNAVAWFRQGPGNQRLRVAAITNTGTTDYADSVQGRFSIARDNAENTVTLQMNSLKPEDTAIYYCKIYTLPVPISSHDDTWGQGTQVTVSS', 'label 0'),
  ('pgXX88-27 (VHH, not shown: small tags and cut ends) VHH: EVQLVESGGGLVQPGGSVTLSCATSKDTFSRYHMGWFRQAAGKEREFVAAIANTGTTTDYADFVKGRFTISRDSAKNTVYLQMDSLKVEDTAMYYCVVGSQFMSYDYWGQGTQVTVSS', 'label 1'),
  ('pgXX88-10 (VHH, not shown: small tags and cut ends) VHH: EVQLVESGGGLVQAGESLRLSCSASGSIRLNAVGWFRQAPVNQRLMVATITHNNSTNYADSVQGRFTIARDDAKNTVTLQMNSLKPEDTAVYMCKVYQLPVPISSHDDYWGQGTQVTVSS', 'label 0');

Asked: Please state whether OD450 is below 0.2 for pgXX88-19 (VHH, not shown: small tags and cut ends) VHH: EVQLVESGGGLVQAGGSLRLSCVATGRTRSSTYIMAWFRQAPGKERDFVAAISFIGGSPVYTDSVKGRFTISRVIAENTVHLQMNDLTPEDTALYYCAATDSGPLGPSGPSKYEYWGQGTQVTVSS
Given back: label 0

Asked: Please state whether OD450 is below 0.2 for pgXX88-2 (VHH, not shown: small tags and cut ends) VHH: EVQLVESGGGLVQPGGSLRLSCAASGFAFGDIPMMWVRQAPGKGREWVSSISADSATQSYADSVQDRFTISRDNAKNTLYLEMHILKPEDTAVYYCATTDRPPPGQGTQVTVSS
Given back: label 1

Asked: Please state whether OD450 is below 0.2 for pgXX88-60 (VHH, not shown: small tags and cut ends) VHH: EVQLVESGGGLAQPGGSLRLSCAASGFTFSNYAMGWYRQAPGKEREFVAAIDWSTNALLYGDSVKGRFTISRDNAKNTVFLQMSGLKPEDTALYYCAADRAYHTVVLGPPEGMDYWGKGTQVTVSS
Given back: label 0
